- targetDesc: Progesterone Receptor (PR) (Homo sapiens, UniProt P06401)
- Construct: endogenous in cells
- Sequence (P06401 whole entry): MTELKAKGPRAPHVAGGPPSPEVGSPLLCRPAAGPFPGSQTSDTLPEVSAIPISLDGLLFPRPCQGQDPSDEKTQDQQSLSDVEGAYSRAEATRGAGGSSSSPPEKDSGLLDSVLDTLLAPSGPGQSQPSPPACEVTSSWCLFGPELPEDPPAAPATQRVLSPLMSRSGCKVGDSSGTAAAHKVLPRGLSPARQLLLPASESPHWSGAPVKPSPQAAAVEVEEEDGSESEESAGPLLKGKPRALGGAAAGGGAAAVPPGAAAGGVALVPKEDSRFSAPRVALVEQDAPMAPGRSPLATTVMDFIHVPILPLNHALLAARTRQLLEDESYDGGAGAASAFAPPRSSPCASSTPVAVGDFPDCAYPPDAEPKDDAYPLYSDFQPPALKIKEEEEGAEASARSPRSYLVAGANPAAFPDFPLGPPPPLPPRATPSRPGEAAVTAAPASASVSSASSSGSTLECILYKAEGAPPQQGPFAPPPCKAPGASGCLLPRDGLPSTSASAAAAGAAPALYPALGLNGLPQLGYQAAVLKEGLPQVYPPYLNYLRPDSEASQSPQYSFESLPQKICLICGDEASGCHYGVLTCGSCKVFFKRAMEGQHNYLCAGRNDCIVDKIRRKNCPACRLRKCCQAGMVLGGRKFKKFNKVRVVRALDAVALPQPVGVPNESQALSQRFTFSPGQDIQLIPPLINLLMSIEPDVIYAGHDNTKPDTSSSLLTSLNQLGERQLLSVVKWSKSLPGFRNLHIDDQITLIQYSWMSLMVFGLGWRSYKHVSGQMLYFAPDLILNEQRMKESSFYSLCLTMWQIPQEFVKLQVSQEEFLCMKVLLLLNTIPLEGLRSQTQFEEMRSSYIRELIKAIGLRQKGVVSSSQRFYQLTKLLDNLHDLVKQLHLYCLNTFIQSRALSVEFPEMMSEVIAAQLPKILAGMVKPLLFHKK
- assayInfo: In vitro functional assay for progesterone receptor (PR) antagonism: inhibition of progesterone-induced alkaline phosphatase expression in T47D cells (Screen 1.0)
- conditionSummary: antagonist format (5 nM P4), alkaline phosphatase inhibition in T47D human mammary carcinoma cells
measurementKind: IC50 (nM)

For orientation, consider the following solved cases.
In [3]: df
Out[3]:
                          chemicalstructure  reading
0  Cc1cc(Oc2c(C)nn(CS(C)(=O)=O)c2C2CC2)cc(C)c1C#N       15
1  CCc1nn(CS(C)(=O)=O)c(CC)c1Oc1cc(C)c(C#N)c(C)c1        6
2  Cc1cc(Oc2c(C3CC3)nn(CS(C)(=O)=O)c2C2CC2)cc(C)c1C#N        8
3  Cc1cc(Oc2c(C3CC3)nn(CS(C)(=O)=O)c2C)cc(C)c1C#N        7

1 = Cc1cc(Oc2c(C3CC3)nn(CS(C)(=O)=O)c2C)ccc1C#N
2 = CS(=O)(=O)Cn1nc(C2CC2)c(Oc2ccc(C#N)c(F)c2)c1C1CC1
Query string: Could you kindly indicate whether 1 or 2 has the higher IC50 value? Write down the label attached to your selection.
Result string: 2
